Each recorded value in this set is attributed to ChEMBL document CHEMBL4689842.

- Test system: U2OS
- testMethodNotes: Multiplex assay against U2OS
- Format: toxicity, cell-based
- particulars: human, 48 h, 10 µM, compound concentration 10 uM, replicate 1
Consider the following molecules; for each one, report its Population Apoptotic (%).
One number for each entry, in %.

# annotated cases, reported Population Apoptotic (%) shown
structurestring=Cc1ccc(S(=O)(=O)NC2c3ccccc3Oc3ccccc32)cc1 targetentity=U2OS observedmeasurement=44
structurestring=CC(/C=C1\SC(=S)N(CCCC(=O)Nc2ccc(C(=O)O)c(O)c2)C1=O)=C\c1ccccc1 targetentity=U2OS observedmeasurement=31

Count: 3. Required value per item: Population Apoptotic (%).
1. Cl.NC[C@@H]1O[C@H](C23CC4CC(CC(C4)C2)C3)Cc2c1ccc(O)c2O
2. CC(C)[C@H](CO)Nc1nc(Nc2cccc(Cl)c2)c2ncn(C(C)C)c2n1
3. N#CCNC(=O)c1ccc(-c2ccnc(Nc3ccc(N4CCOCC4)cc3)n2)cc1

[A]
1. 84
2. 77
3. 72

====

- System: Fibroblast
- testMethodNotes: Multiplex assay against human fibroblast
- Type: toxicity, cell-based
- particulars: 12 h, 1 µM, compound concentration 1 uM, replicate 1
# cutoff 200 applies to Total Cell Count; >= gives YES, < gives NO

compound=C=CC(=O)Nc1cc(-n2c(=O)ccc3cnc4ccc(-c5ccc(NS(C)(=O)=O)cc5)cc4c32)ccc1C targetentity=Fibroblast categorylabel=NO
compound=CCCCN(CC)c1nc(C)nc2c1c(C)cn2-c1c(C)cc(C)cc1C.Cl targetentity=Fibroblast categorylabel=NO
compound=CC[C@@H]1C(=O)N(C)c2cnc(Nc3ccc(C(=O)NC4CCN(C)CC4)cc3OC)nc2N1C1CCCC1 targetentity=Fibroblast categorylabel=YES
compound=Cc1c(P(=S)(c2ccccc2)c2ccccc2)n2ccccc2[n+]1C/C=C/c1ccccc1.[Br-] targetentity=Fibroblast categorylabel=NO
compound=NC(=O)c1ccc2nc(-c3ccc(C4(N)CCC4)cc3)c(-c3ccccc3)n2n1 targetentity=Fibroblast categorylabel=YES

Now look at this one.
[Q] Decide: is the reported value of Total Cell Count for "Cc1ccc(S(=O)(=O)NC2c3ccccc3Oc3ccccc32)cc1" equal to or greater than 200?
[A] NO

====

- Tested on: Fibroblast
- testMethodNotes: Multiplex assay against human fibroblast
- Format: toxicity, cell-based
- particulars: 48 h, 10 µM, compound concentration 10 uM, replicate 1
parameterMeasured: Population Mitochondria Different-Phenotype (%)
Numbers only, in %.

Worked examples, 3 molecules total:
molecule=C=CC(=O)Nc1cc(-n2c(=O)ccc3cnc4ccc(-c5ccc(NS(C)(=O)=O)cc5)cc4c32)ccc1C observedmeasurement=4
molecule=CCCc1cc(C)[nH]c(=O)c1CNC(=O)c1cc(-c2ccc(N3CCN(C(C)C)CC3)nc2)cc2c1cnn2C(C)C observedmeasurement=63
molecule=Cc1c(Nc2ccc(S(=O)(=O)N3CCN(C)CC3)cc2F)nc2ccc(-c3cnn(C4CC4)c3)cn2c1=O observedmeasurement=1

Batch lookup, Population Mitochondria Different-Phenotype (%) per entry.
1. CCCCCNC(=N)N/N=C/c1c[nH]c2ccc(OC)cc12.O=C(O)/C=C\C(=O)O [TEGASEROD MALEATE]
2. Cc1ccc(S(=O)(=O)NC2c3ccccc3Oc3ccccc32)cc1
3. Cl.NC[C@@H]1O[C@H](C23CC4CC(CC(C4)C2)C3)Cc2c1ccc(O)c2O
4. CC(C)c1cc(Nc2nc(N3CCC[C@H](N)C3)ncc2C(N)=O)cc(C(C)C)n1
5. N#Cc1cccc(C(=O)Nc2cc(-c3ccccc3)nn2-c2ccccc2)c1

[A]
[23, 2, 5, 13, 4]

[Q] Entry under review: Oc1cccc(-c2nc(N3CCOCC3)c3oc4ncccc4c3n2)c1 [PI-103] . Reported Population Mitochondria Different-Phenotype (%)?
[A] 12
